# System: 556581-035-R-J1-PDC complex spheroid growth
# TEST DETAILS: Anticancer human tumor 556581-035-R-J1-PDC patient-derived ovarian carcinoma cell line growth inhibition [Asc]
# CONDITIONS: second compound 1 µM; first compound 0.1 µM; stronger effect = lower value
# Text: Multicellular complex tumor spheroid response to apoptosis pathway targeting inhibitors Alrizomadlin, Pelcitoclax, and Dasminapant in combination with a variety of drugs and investigational agents in selected tumor cell lines […] Compounds. […] If the clinical Cmax for an agent had not been determined, the highest concentration tested was 10 microM. […]
ASSAY ENDPOINT: viability, T/C (%)
Report only the number, with the unit % understood.

Dear colleague, I am looking for the recorded viability, T/C of the following molecule: Cn1ncnc1[C@H]1c2n[nH]c(=O)c3cc(F)cc(c23)N[C@@H]1c1ccc(F)cc1 + Cc1c(S(C)(=O)=O)c(-c2cc(F)cc(N3CCN(c4ccc(NS(=O)(=O)c5ccc(NC(CCN6CCC(C(=O)OCCCP(=O)(O)O)CC6)CSc6ccccc6)c(S(=O)(=O)C(F)(F)F)c5)cc4)CC3)c2)c(-c2ccc(Cl)cc2)n1C(C)C 72.1

Need viability, T/C, item NC1CCC(NC2CC2c2ccccc2)CC1 (stereo not drawn) + CNC(C)C(=O)NC1CN(S(=O)(=O)c2cccc(S(=O)(=O)N3CCC4CCC(C(=O)NC(c5ccccc5)c5ccccc5)N4C(=O)C(NC(=O)C(C)NC)C3)c2)CCC2CCC(C(=O)NC(c3ccccc3)c3ccccc3)N2C1=O 71.4

Return reported viability, T/C; argument: C=C(F)C(=O)N1CCN(c2nc(OCC3CCCN3C)nc3c2CCN(c2cccc4cccc(Cl)c24)C3)CC1CC#N (stereo not drawn) + CNC(C)C(=O)NC1CN(S(=O)(=O)c2cccc(S(=O)(=O)N3CCC4CCC(C(=O)NC(c5ccccc5)c5ccccc5)N4C(=O)C(NC(=O)C(C)NC)C3)c2)CCC2CCC(C(=O)NC(c3ccccc3)c3ccccc3)N2C1=O 62.7

---

# Tested on: 556581-035-R-J1-PDC complex spheroid growth
# TEST DETAILS: Anticancer human tumor 556581-035-R-J1-PDC cell line growth inhibition [Asc];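 also: spheroids exposed to agents for 7 days before viability read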
# CONDITIONS: second compound 0.316 µM; first compound 3.16 µM; stronger effect = lower value
ASSAY ENDPOINT: viability, T/C (%)
Numbers only; they are read as %.

viability, T/C lookup needed for C#Cc1c(F)ccc2cc(O)cc(-c3ncc4c(N5CC6CCC(C5)N6)nc(OCC56CCCN5CC(F)C6)nc4c3F)c12 (configuration not stated) + Cc1c(S(C)(=O)=O)c(-c2cc(F)cc(N3CCN(c4ccc(NS(=O)(=O)c5ccc(NC(CCN6CCC(C(=O)OCCCP(=O)(O)O)CC6)CSc6ccccc6)c(S(=O)(=O)C(F)(F)F)c5)cc4)CC3)c2)c(-c2ccc(Cl)cc2)n1C(C)C , thanks. 63.6

Look up viability, T/C: C#Cc1c(F)ccc2cc(O)cc(-c3ncc4c(N5CC6CCC(C5)N6)nc(OCC56CCCN5CC(F)C6)nc4c3F)c12 (configuration not stated) + CNC(C)C(=O)NC1CN(S(=O)(=O)c2cccc(S(=O)(=O)N3CCC4CCC(C(=O)NC(c5ccccc5)c5ccccc5)N4C(=O)C(NC(=O)C(C)NC)C3)c2)CCC2CCC(C(=O)NC(c3ccccc3)c3ccccc3)N2C1=O 62.8

---

# Tested on: 556581-035-R-J1-PDC complex spheroid growth
# TEST DETAILS: Anticancer human tumor 556581-035-R-J1-PDC cell line growth inhibition [Asc];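 also: spheroids exposed to agents for 7 days before viability read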
# CONDITIONS: curve of first compound; second compound 0.3 µM
pIC50: −log10 of the molar value.
ASSAY ENDPOINT: pIC50

Can you look up the measured pIC50 of Cn1ncnc1[C@H]1c2n[nH]c(=O)c3cc(F)cc(c23)N[C@@H]1c1ccc(F)cc1 + CCN1C(C(=O)NC23CCC(C(=O)O)(CC2)CC3)C(c2cccc(Cl)c2F)C2(C(=O)Nc3cc(Cl)ccc32)C12CCCCC2 for me? < 7.00

Need pIC50, item CCN1CCN(Cc2ccc(Nc3ncc(F)c(-c4cc(F)c5nc(C)n(C(C)C)c5c4)n3)nc2)CC1 + CCN1C(C(=O)NC23CCC(C(=O)O)(CC2)CC3)C(c2cccc(Cl)c2F)C2(C(=O)Nc3cc(Cl)ccc32)C12CCCCC2 < 6.00

Returns the measured pIC50 for the input compound. Input: NC1CCC(NC2CC2c2ccccc2)CC1 (stereo not drawn) + CCN1C(C(=O)NC23CCC(C(=O)O)(CC2)CC3)C(c2cccc(Cl)c2F)C2(C(=O)Nc3cc(Cl)ccc32)C12CCCCC2 < 7.00
